# system_name: Mouse ACVR2A (mouse, UniProt P27038 20-135, limits assumed); further: test concentration or dose not given here
# Sequence (P27038 20-135 limits assumed): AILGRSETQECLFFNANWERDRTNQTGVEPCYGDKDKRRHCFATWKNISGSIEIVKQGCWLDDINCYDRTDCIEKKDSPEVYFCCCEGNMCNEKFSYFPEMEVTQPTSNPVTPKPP
# test_summary: ELISA
Could you please report measured optical density for the items listed next?
One number for each entry, in OD.

binder	unit_symbol	quantitative_result
374_D04 (antibody, V domains shown, VH/VL only) VH: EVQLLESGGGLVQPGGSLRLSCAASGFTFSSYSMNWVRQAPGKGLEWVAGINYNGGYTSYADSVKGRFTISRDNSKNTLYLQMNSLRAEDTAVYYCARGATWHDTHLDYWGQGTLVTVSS VL: DIQMTQSPSSLSASVGDRVTITCRASQSILSYLNWYQQKPGKAPKLVIYAATSRHSGVPSRFSGSGSGTDFTLTISSLQPEDFATYYCQQSYDTPLTFGGGTKVEIK	OD	3.65

Now for the binder whose optical density we want.
[Q] Reported optical density for 367_B06 (antibody, V domains shown, VH/VL only) VH: EVQLLESGGGLVQPGGSLRLSCAASGFTFSSYSMNWVRQAPGKGLEWVANINYNGGYTGYADSVKGRFTISRDNSKNTLYLQMNSLRAEDTAVYYCARGATWHDTHLDYWGQGTLVTVSS VL: DIQMTQSPSSLSASVGDRVTITCRASQSIISYVNWYQQKPGKAPKLVIYAATSLHSGVPSRFSGSGSGTDFTLTISSLQPEDFATYYCQQSYNSPLTFGGGTKVEIK : what is it?
[A] 1.89
